Protein target, amino acids: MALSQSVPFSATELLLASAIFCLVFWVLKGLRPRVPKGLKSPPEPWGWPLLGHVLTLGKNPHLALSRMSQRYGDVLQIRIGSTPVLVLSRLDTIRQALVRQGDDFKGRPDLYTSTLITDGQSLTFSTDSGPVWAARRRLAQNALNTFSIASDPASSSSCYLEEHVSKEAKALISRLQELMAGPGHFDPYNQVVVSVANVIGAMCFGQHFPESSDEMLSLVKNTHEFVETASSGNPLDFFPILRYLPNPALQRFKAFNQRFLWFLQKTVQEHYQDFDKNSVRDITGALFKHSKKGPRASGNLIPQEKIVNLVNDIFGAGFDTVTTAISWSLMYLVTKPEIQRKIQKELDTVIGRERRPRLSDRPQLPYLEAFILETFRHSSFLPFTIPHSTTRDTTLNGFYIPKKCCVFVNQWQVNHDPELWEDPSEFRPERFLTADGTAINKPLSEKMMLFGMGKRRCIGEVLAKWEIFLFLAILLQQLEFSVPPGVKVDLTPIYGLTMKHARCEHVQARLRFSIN
pIC50: −log10 of the molar value.
Assignment: determine reported pIC50 for the given compounds.

N#Cc1cc(F)cc(Oc2ccc3c(c2C(F)F)[C@@H](O)C(F)(F)S3(=O)=O)c1: < 4.30

Kindly review the next compound as well.
// recorded pIC50 for `CS(=O)(=O)c1ccc(Oc2cc(F)cc(C#N)c2)c2c1[C@H](O)C(F)(F)C2` : < 4.30
